Read-out: Interleukin-6 (IL6), IL6 (gene 3569)
Test Description: BSK_CASM3C_IL6: BioMAP Diversity Plus: CASM3C Assay for Interleukin-6 (IL6) Biomarker Activity for (AID 2283040)
Test Context: primary human coronary artery smooth muscle cells; actives raise or lower the signal
The source made the active and inactive calls. The calls were made as follows: active = hit-call score of the fitted dose curve at least 0.9, where 1 is the maximum; inactive = score below 0.9.
Bench note: report the call from 1 (active), -1 (inactive)

Worked set:
{"columns": ["Smiles Code", "Answer Label"],
 "data": [
  ["OCC(CO)(CBr)CBr", -1],
  ["CN(Cc1cnc2nc(N)nc(N)c2n1)c1ccc(C(=O)N[C@@H](CCC(=O)O)C(=O)O)cc1", -1],
  ["N=C(N)c1ccc(OCCCCCOc2ccc(C(=N)N)cc2)cc1", 1],
  ["C[C@]12CC[C@@H]3c4ccc(O)cc4CC[C@H]3[C@@H]1C[C@@H](O)[C@@H]2O", -1],
  ["CCCCCCCCCCCCOS(=O)(=O)O", -1]
]}

Which outcome did this test record for the compound O=P(O)(O)CCC(F)(F)C(F)(F)C(F)(F)C(F)(F)C(F)(F)C(F)(F)F ?
-1

Which outcome did this test record for the compound O=C(NCc1ncc(C(F)(F)F)cc1Cl)c1c(Cl)cccc1Cl ?
-1

Which outcome did this test record for the compound Oc1c(Cl)cc(Cl)cc1Sc1cc(Cl)cc(Cl)c1O ?
-1

Which outcome did this test record for the compound O=C(O)CCC(F)(F)C(F)(F)C(F)(F)C(F)(F)C(F)(F)C(F)(F)F ?
-1

Which outcome did this test record for the compound Oc1ccc(Cc2ccccc2O)cc1 ?
-1

Which outcome did this test record for the compound CC[N+](CC)(CC)Cc1ccccc1 ?
1

Which outcome did this test record for the compound O=C(O)CCC(F)(F)C(F)(F)C(F)(F)C(F)(F)C(F)(F)F ?
-1

====

Test Description: ATG_GLI_CIS: Attagene CIS-FACTORIAL HepG2 Assay for human Zinc Finger Protein GLI1 (AID 2282945)
Test Context: HepG2, Attagene cis-factorial reporter mRNA, GLI element; actives raise or lower the signal
Active and inactive are the calls of the source. The calls were made as follows: active = hit-call score of the fitted dose curve at least 0.9, where 1 is the maximum; inactive = score below 0.9.
Bench note: report the call from active, inactive

Worked set:
{"columns": ["Compound", "Answer Label"],
 "data": [
  ["O=C1OC2(c3ccccc31)c1cc(I)c(O)c(I)c1Oc1c2cc(I)c(O)c1I", "inactive"],
  ["C=COC(=O)C(C)(C)CCCCCC", "inactive"],
  ["O=C(C=C(O)C(F)(F)F)C(F)(F)F", "inactive"],
  ["FC(F)(F)C(F)(F)C(F)(F)C(F)(F)I", "inactive"],
  ["CC1CCC(CO)CC1 (stereo unspecified)", "inactive"]
]}

Which outcome did this test record for the compound CC1COCc2cc3c(cc21)C(C)(C)C(C)C3(C)C (stereo unspecified) ?
inactive

Which outcome did this test record for the compound O=C(O)C(=O)O ?
inactive

Which outcome did this test record for the compound O=C(F)C(F)(F)C(F)(F)C(F)(F)C(F)F ?
inactive

====

Read-out: MicroRNA 122 (MIR122), gene 406906
Test Description: LTEA_HepaRG_MIR122: Life Technologies and Expression Analysis (LTEA) Assay for MicroRNA 122 (MIR122) using HepaRG (AID 2283516); also: the transcript read is the microRNA miR-122
Test Context: mRNA level, 48 h; actives raise or lower the signal
The source made the active and inactive calls. How the source made its calls: active means hit-call score of the fitted dose curve at least 0.9, where 1 is the maximum; inactive means score below 0.9.
Measured Property: AC50

{"columns": ["Compound", "AC50"],
 "data": [
  ["O=C(c1ccccc1)c1ccccc1", "inactive"],
  ["Cc1[nH]nc2c1N=C(c1ccccc1Cl)c1cc([N+](=O)[O-])ccc1N2", "7.26 µM (active)"],
  ["O=C(CCCN1CCC(O)(c2ccc(Cl)cc2)CC1)c1ccc(F)cc1", "inactive"],
  ["OCC(CO)(CBr)CBr", "inactive"],
  ["CCCCC(CC)C(=O)O (stereo unspecified)", "inactive"]
]}

Entry CN(Cc1cnc2nc(N)nc(N)c2n1)c1ccc(C(=O)N[C@@H](CCC(=O)O)C(=O)O)cc1 : reported AC50 = ?
inactive

====

Read-out: TIMP metallopeptidase inhibitor 2 (TIMP2), TIMP2 (gene 7077)
Test Description: BSK_KF3CT_TIMP2: BioMAP Diversity Plus: KF3CT Assay for TIMP metallopeptidase inhibitor 2 (TIMP2) Biomarker Activity (AID 2283071)
Test Context: primary human keratinocytes with fibroblasts; actives raise or lower the signal
The source made the active and inactive calls. How the source made its calls: active means hit-call score of the fitted dose curve at least 0.9, where 1 is the maximum; inactive means score below 0.9.
Bench note: report the call from Yes (active), No (inactive)

Worked set:
{"columns": ["Molecule", "Answer Label"],
 "data": [
  ["C=CC(=C)CC/C=C(\\C)CCC=C(C)C", "No"],
  ["CC[N+](CC)(CC)Cc1ccccc1", "No"],
  ["Cc1ccc(C(=O)c2ccccc2)cc1", "Yes"],
  ["CCCCCCCCCCCCCCCCCC[N+](C)(C)Cc1ccccc1", "Yes"],
  ["CCCCC=O", "No"]
]}

Which outcome did this test record for the molecule CN(C)CCOC(c1ccccc1)c1ccccc1 ?
No

Which outcome did this test record for the molecule CN(Cc1cnc2nc(N)nc(N)c2n1)c1ccc(C(=O)N[C@@H](CCC(=O)O)C(=O)O)cc1 ?
No

Which outcome did this test record for the molecule CCOC(=O)CN[C@@H](C(=O)N1CC[C@H]1C(=O)NCc1ccc(/C(N)=N/O)cc1)C1CCCCC1 ?
No

Which outcome did this test record for the molecule C=CC(=O)OCCC(F)(F)C(F)(F)C(F)(F)C(F)(F)C(F)(F)C(F)(F)C(F)(F)C(F)(F)F ?
No

Which outcome did this test record for the molecule COc1cccc(O)c1 ?
No

Which outcome did this test record for the molecule C=COC(=O)C(C)(C)CCCCCC ?
Yes

Which outcome did this test record for the molecule CCCCc1oc2ccccc2c1C(=O)c1cc(I)c(OCCN(CC)CC)c(I)c1 ?
Yes

====

Tested Target: Nuclear receptor subfamily 1 group I member 2 (Homo sapiens) (UniProt O75469)
Sequence (O75469 whole entry, looked up): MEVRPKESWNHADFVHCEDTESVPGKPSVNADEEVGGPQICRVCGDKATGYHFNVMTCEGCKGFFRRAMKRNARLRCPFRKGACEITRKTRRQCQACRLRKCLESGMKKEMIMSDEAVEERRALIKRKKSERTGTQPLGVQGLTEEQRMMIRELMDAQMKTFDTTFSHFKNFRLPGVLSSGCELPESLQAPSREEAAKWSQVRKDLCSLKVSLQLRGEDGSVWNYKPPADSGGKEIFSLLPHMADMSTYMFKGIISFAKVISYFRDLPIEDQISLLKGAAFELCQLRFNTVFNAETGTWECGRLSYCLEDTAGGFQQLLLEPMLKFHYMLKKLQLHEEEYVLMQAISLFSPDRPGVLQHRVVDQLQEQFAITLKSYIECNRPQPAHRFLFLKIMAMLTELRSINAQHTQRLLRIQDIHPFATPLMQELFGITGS
Test Description: ATG_PXR_TRANS: Attagene TRANS-FACTORIAL HepG2 Assay for human Pregnane X Receptor (PXR) (AID 2283008)
Records with an inconclusive call do not appear. The source made the active and inactive calls. How the source made its calls: active means hit-call score of the fitted dose curve at least 0.9, where 1 is the maximum; inconclusive means response in the unintended direction; inactive means score below 0.9.
Parameter: AC50. Scope: all listed entries.

Field: example entries. Status: answers known.
{"columns": ["Smiles Code", "Result"],
 "data": [
  ["CC(C)(C)c1ccc(CCC=O)cc1", "29.3 µM (active)"],
  ["C=Cc1ccc(O)c(OC)c1", "70.3 µM (active)"]
]}

Read the next record carefully.
Entry CCCCCCOC(=O)c1ccc(O)cc1 : reported AC50 = ?
25.6 µM (active)

====

Test Description: ATG_PXRE_CIS: Attagene CIS-FACTORIAL HepG2 Assay for human Pregnane X Receptor Element (PXRE) (AID 2282957)
Test Context: HepG2 Attagene CIS-FACTORIAL PXRE reporter, mRNA; actives raise or lower the signal
Calls of active or inactive are those of the source. How the source made its calls: active means hit-call score of the fitted dose curve at least 0.9, where 1 is the maximum; inactive means score below 0.9.
Bench note: report the call from Y for active, N for inactive

Worked set:
{"columns": ["Smiles Code", "Answer Label"],
 "data": [
  ["COc1cccc(O)c1", "N"],
  ["CCOCCOCC", "N"],
  ["OCC(CO)(CBr)CBr", "N"],
  ["CN(Cc1cnc2nc(N)nc(N)c2n1)c1ccc(C(=O)N[C@@H](CCC(=O)O)C(=O)O)cc1", "Y"],
  ["O=C(c1cc(O)c(O)c(O)c1)c1ccc(O)c(O)c1O", "N"]
]}

# input for lookup
Which outcome did this test record for the compound O=C(F)C(F)(F)C(F)(F)C(F)(F)C(=O)F ?
N

====

Read-out: Lipase C (LIPC), LIPC (gene 3990)
Test Description: LTEA_HepaRG_LIPC: Life Technologies and Expression Analysis (LTEA) Assay for Lipase C (LIPC) using HepaRG (AID 2283514)
Test Context: mRNA level, 48 h; actives raise or lower the signal
Activity calls are given as the source filed them. How the source made its calls: active means hit-call score of the fitted dose curve at least 0.9, where 1 is the maximum; inactive means score below 0.9.
Measured Property: AC50

{"columns": ["Molecule", "Measured Property", "Result"],
 "data": [
  ["CCCCC(CC)C(=O)O (stereo not given)", "AC50", "inactive"],
  ["O=C(CCCN1CCC(O)(c2ccc(Cl)cc2)CC1)c1ccc(F)cc1", "AC50", "84.9 µM (active)"],
  ["CCC(C)c1ccccc1O (stereo not given)", "AC50", "inactive"],
  ["Cc1[nH]nc2c1N=C(c1ccccc1Cl)c1cc([N+](=O)[O-])ccc1N2", "AC50", "11.2 µM (active)"]
]}

Read the next record carefully.
Entry O=C1NS(=O)(=O)c2ccccc21 : reported AC50 = ?
inactive

====

Read-out: Plasminogen activator inhibitor-1 (PAI1), SERPINE1 (gene 5054)
Test Description: BSK_hDFCGF_PAI1: BioMAP Diversity Plus: hDFCGF Assay for Plasminogen activator inhibitor-1 (PAI1) Biomarker Activity (AID 2283066)
Test Context: primary human foreskin fibroblasts; actives raise or lower the signal
Active and inactive are the calls of the source. Rule for the calls: active = hit-call score of the fitted dose curve at least 0.9, where 1 is the maximum; inactive = score below 0.9.
Bench note: report the call from 1 (yes) = active, 0 (no) = inactive

Worked set:
{"columns": ["Compound", "Answer Label"],
 "data": [
  ["O=S(=O)(O)C(F)(F)C(F)(F)C(F)(F)C(F)(F)C(F)(F)C(F)(F)C(F)(F)C(F)(F)C(F)(F)C(F)(F)F", "0 (no)"],
  ["CN(CCO)S(=O)(=O)C(F)(F)C(F)(F)C(F)(F)C(F)(F)C(F)(F)C(F)(F)C(F)(F)C(F)(F)F", "0 (no)"],
  ["COc1cc(OC)nc(NC(=O)NS(=O)(=O)Nc2ccccc2C(=O)N(C)C)n1", "0 (no)"],
  ["Clc1ccc(Nc2nnc(Cc3ccncc3)c3ccccc23)cc1", "0 (no)"],
  ["O=C1NS(=O)(=O)c2ccccc21", "0 (no)"],
  ["COC1=CC(=O)C[C@@H](C)[C@]12Oc1c(Cl)c(OC)cc(OC)c1C2=O", "1 (yes)"]
]}

Which outcome did this test record for the compound C=COC(=O)C(C)(C)CCCCCC ?
1 (yes)

Which outcome did this test record for the compound Oc1cc2ccccc2cc1O ?
0 (no)

Which outcome did this test record for the compound Cc1[nH]nc2c1N=C(c1ccccc1Cl)c1cc([N+](=O)[O-])ccc1N2 ?
1 (yes)

Which outcome did this test record for the compound O=C(O)CCC(F)(F)C(F)(F)C(F)(F)C(F)(F)C(F)(F)C(F)(F)F ?
0 (no)

Which outcome did this test record for the compound CN(C)CCOC(c1ccccc1)c1ccccc1 ?
0 (no)

Which outcome did this test record for the compound O=C(CCCN1CCC(O)(c2ccc(Cl)cc2)CC1)c1ccc(F)cc1 ?
0 (no)

Which outcome did this test record for the compound CCCCCCCCCCCCCCC ?
0 (no)

Which outcome did this test record for the compound O=C(c1ccccc1)c1ccccc1 ?
0 (no)

Which outcome did this test record for the compound CCCCCCCCCCCCCCCCCC[N+](C)(C)Cc1ccccc1 ?
1 (yes)

Which outcome did this test record for the compound CS(=O)(=O)c1ccc([C@@H](CC2CCCC2)C(=O)Nc2cnccn2)cc1Cl ?
1 (yes)

Which outcome did this test record for the compound C=CC(=C)CC/C=C(\C)CCC=C(C)C ?
0 (no)

Which outcome did this test record for the compound CCC(C)c1ccccc1O (stereo not given) ?
0 (no)

Which outcome did this test record for the compound O=C(O)CCC(F)(F)C(F)(F)C(F)(F)C(F)(F)C(F)(F)F ?
0 (no)

Which outcome did this test record for the compound O=C(CC(=O)C(F)(F)C(F)(F)C(F)(F)F)c1cccs1 ?
0 (no)
